Origin of measurements: paper PMC12277872

Record form. Attribute: IC50. Fill in for each entry.
# study target: AChE from Electrophorus electricus (electric eel) (Electrophorus electricus)
# Construct: purchased Sigma Aldrich C3389
# Sequence (O42275 24-633): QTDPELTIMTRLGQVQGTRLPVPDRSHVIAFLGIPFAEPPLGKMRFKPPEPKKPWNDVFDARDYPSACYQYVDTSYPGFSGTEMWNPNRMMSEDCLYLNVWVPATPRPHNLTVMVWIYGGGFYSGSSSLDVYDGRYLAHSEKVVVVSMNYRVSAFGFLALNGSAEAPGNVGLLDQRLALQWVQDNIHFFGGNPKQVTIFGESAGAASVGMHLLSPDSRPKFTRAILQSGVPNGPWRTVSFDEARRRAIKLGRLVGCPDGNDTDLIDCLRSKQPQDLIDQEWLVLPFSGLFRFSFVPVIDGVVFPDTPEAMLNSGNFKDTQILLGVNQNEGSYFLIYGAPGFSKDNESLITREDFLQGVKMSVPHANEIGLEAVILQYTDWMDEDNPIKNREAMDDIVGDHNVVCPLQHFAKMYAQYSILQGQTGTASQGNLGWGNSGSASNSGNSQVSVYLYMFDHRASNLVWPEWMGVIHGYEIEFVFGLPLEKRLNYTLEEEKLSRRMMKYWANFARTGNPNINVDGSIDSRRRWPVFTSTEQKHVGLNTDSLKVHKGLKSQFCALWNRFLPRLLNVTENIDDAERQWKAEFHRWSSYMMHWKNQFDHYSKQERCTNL
# assay details: biochemical
# assay setup: AChI substrate, DTNB, 412 nm, Tris/HCl pH 8.0
Kindly answer with a numeric value in nM, unit omitted.

Tell me the measured IC50 of CCN(CC)c1ccc(/C=N/NC(=S)Nc2c(C)cccc2C)c(OS(=O)(=O)c2ccc3ccccc3c2)c1 , please. 40.6

Tell me the measured IC50 of CCN(CC)c1ccc(/C=N/NC(=S)NCC(C)C)c(OS(=O)(=O)c2ccc3ccccc3c2)c1 , please. 49.5

Tell me the measured IC50 of CCN(CC)c1ccc(/C=N/NC(=S)NCCc2ccccc2)c(OS(=O)(=O)c2ccc3ccccc3c2)c1 , please. 56.2

Tell me the measured IC50 of CCN(CC)c1ccc(/C=N/NC(=S)Nc2ccccc2C)c(OS(=O)(=O)c2ccc3ccccc3c2)c1 , please. 27.4

Tell me the measured IC50 of CCN(CC)c1ccc(/C=N/NC(=S)Nc2cccc(Cl)c2)c(OS(=O)(=O)c2ccc3ccccc3c2)c1 , please. 31

Tell me the measured IC50 of CCN(CC)c1ccc(C=NNC(=S)NCCCSC)c(OS(=O)(=O)c2ccc3ccccc3c2)c1 , please. 80.4

Tell me the measured IC50 of CCN(CC)c1ccc(/C=N/NC(=S)NCc2ccc(Cl)cc2)c(OS(=O)(=O)c2ccc3ccccc3c2)c1 , please. 19.3

Tell me the measured IC50 of CCN(CC)c1ccc(/C=N/NC(=S)Nc2ccc(F)cc2)c(OS(=O)(=O)c2ccc3ccccc3c2)c1 , please. 29.5

Tell me the measured IC50 of CCN(CC)c1ccc(/C=N/NC(=S)Nc2ccc(Br)cc2)c(OS(=O)(=O)c2ccc3ccccc3c2)c1 , please. 33.8

Tell me the measured IC50 of CCN(CC)c1ccc(/C=N/NC(=S)Nc2cccc(Cl)c2Cl)c(OS(=O)(=O)c2ccc3ccccc3c2)c1 , please. 14.9

Tell me the measured IC50 of CCN(CC)c1ccc(/C=N/NC(=S)Nc2ccc(Cl)cc2)c(OS(=O)(=O)c2ccc3ccccc3c2)c1 , please. 24.8

Tell me the measured IC50 of CCN(CC)c1ccc(/C=N/NC(=S)NC2CCCCC2)c(OS(=O)(=O)c2ccc3ccccc3c2)c1 , please. 54.5

Tell me the measured IC50 of CCN(CC)c1ccc(/C=N/NC(=S)Nc2ccccc2C(F)(F)F)c(OS(=O)(=O)c2ccc3ccccc3c2)c1 , please. 16.8

Tell me the measured IC50 of CCN(CC)c1ccc(/C=N/NC(N)=S)c(OS(=O)(=O)c2ccc3ccccc3c2)c1 , please. 47.7
